Listed here are molecules together with their documented SILAC ratio Hsp90b1.
# target_or_test_system: AEA-DA lipid probe targets in Neuro2a cells (Mus musculus)
# Sequence (P08113 22-802): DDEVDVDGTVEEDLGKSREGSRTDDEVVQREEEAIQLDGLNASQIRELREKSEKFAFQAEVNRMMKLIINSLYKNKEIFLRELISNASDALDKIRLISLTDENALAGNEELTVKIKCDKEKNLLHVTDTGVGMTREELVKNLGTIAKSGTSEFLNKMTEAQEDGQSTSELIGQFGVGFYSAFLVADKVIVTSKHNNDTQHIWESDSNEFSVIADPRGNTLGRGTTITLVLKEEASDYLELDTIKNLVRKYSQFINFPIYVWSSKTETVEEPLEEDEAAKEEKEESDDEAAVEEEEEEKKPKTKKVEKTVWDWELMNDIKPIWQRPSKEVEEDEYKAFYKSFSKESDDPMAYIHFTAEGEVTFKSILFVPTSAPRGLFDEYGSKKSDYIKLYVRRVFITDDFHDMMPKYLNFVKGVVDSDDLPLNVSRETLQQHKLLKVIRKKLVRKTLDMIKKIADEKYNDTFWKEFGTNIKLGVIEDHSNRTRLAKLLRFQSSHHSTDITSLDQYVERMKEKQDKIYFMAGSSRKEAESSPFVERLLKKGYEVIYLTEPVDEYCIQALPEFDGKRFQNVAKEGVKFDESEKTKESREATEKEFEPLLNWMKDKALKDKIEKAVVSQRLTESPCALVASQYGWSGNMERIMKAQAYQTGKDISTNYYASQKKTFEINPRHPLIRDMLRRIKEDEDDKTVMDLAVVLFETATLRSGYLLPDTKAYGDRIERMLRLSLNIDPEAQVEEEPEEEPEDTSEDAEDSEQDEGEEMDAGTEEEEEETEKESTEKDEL
# condition_context: competitor 25 μM

>  <molecule>
CN1CCN(C(=O)c2c(-c3ccccc3)c3cc([N+](=O)[O-])ccc3n2C)CC1

>  <SILAC ratio Hsp90b1>
1.4

$$$$
>  <molecule>
C=CCN(C)CCCCCCOc1ccc(C(=O)c2ccc(Br)cc2)c(F)c1 [Ro 48-8071, reference compound]

>  <SILAC ratio Hsp90b1>
0.9

$$$$
>  <molecule>
CN1CCN(C(=O)c2[nH]c3ccc([N+](=O)[O-])cc3c2-c2ccccc2)CC1

>  <SILAC ratio Hsp90b1>
1.3

$$$$
>  <molecule>
O=C(/C=C/c1cccnc1)NCCCCC1CCN(C(=O)c2ccccc2)CC1 [FK-866, reference compound]

>  <SILAC ratio Hsp90b1>
1.2

$$$$

These entries and their values trace back to patent US10168342B2.
